# Ki per entry for 5-hydroxytryptamine receptor 2A (Rattus norvegicus, UniProt P14842)
outcome_measure: Ki

| structure_string | test_result |
| --- | --- |
| O=c1[nH]c2cccc(N3CCN(Cc4cccc(-c5ccccc5)c4)CC3)c2o1 | 3310 nM |
| CC(C)Oc1ccccc1OCCNCc1cccc(C2=CCCCCC2)c1 | 1050 nM |

----------
Target: 5-hydroxytryptamine receptor 1A (Homo sapiens, UniProt P08908)
Sequence (P08908 whole entry): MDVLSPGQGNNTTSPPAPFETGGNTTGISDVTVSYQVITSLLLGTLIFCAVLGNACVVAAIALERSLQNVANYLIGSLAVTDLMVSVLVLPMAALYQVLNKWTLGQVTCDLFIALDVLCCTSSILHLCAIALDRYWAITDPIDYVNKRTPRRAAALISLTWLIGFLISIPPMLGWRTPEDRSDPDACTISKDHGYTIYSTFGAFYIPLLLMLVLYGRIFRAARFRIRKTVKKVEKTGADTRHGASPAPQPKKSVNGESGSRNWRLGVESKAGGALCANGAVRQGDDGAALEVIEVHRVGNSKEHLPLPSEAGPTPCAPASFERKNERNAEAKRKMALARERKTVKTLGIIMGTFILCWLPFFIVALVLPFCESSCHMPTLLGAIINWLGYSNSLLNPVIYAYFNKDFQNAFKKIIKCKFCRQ
Experiment: Agonist activity at human 5HT1A receptor in HeLa cells assessed as stimulation of [35S]GTP-gamma-S binding

| structure_string | study_target | EC50 |
| --- | --- | --- |
| CC(C)Oc1ccccc1OCCNCc1cccc(-c2ccco2)c1 | 5-hydroxytryptamine receptor 1A (Homo sapiens, UniProt P08908) | > 10 µM |
| CC(C)Oc1ccccc1OCCNCc1cccc(-c2cccs2)c1 | 5-hydroxytryptamine receptor 1A (Homo sapiens, UniProt P08908) | > 10 µM |
| CC(C)Oc1ccccc1OCCNCc1cccc(C2CC2)c1 | 5-hydroxytryptamine receptor 1A (Homo sapiens, UniProt P08908) | > 10 µM |
